Kindly state pIC50 for each of the entries shown.
target: EGFR L858R/T790M/C797S (LRTMCS) kinase domain (Homo sapiens, UniProt P00533, C797S/L858R/T790M); construct: The EGFR kinase domain (residues 696–1022) was cloned into pTriEx; 6xHis (N, cleaved yes); GST (N, cleaved yes); made in house; host or cells: SF9 insect cells, baculovirus; test: HTRF KinEASE-TK kinase activity assay; type: biochemical; conditions: read-out: IC50, LRTMCS
Sequence (P00533 696-1022 T790M/C797S/L858R): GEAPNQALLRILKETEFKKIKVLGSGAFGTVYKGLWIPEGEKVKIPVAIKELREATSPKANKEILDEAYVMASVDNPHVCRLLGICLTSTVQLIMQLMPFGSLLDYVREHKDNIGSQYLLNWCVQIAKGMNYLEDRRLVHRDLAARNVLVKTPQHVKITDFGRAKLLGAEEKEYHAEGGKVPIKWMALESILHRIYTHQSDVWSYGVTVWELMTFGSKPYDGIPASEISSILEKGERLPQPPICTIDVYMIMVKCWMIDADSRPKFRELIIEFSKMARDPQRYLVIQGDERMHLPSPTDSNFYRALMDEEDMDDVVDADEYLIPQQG
pIC50: −log10 of the molar value.

**Q:** # query: pIC50 of entry CSc1nc(-c2cccc(NC(=O)c3cccc4c3NC(=O)c3ccccc3N4)c2)c(-c2ccnc(NC(C)=O)c2)[nH]1
**A:** 10.19 to 10.29

**Q:** GET /values?readout=pIC50&item= CSc1nc(-c2ccc(F)cc2)c(-c2ccnc(NC(C)=O)c2)[nH]1 [Compound 5, reference compound]
**A:** 5.00 to 5.22

**Q:** Consider the compound CSc1nc(-c2cccc(CN3C(=O)c4ccccc4Nc4ccc(F)cc43)c2)c(-c2ccnc(NC(C)=O)c2)[nH]1 and give its measured pIC50.
**A:** ≤ 6.00

**Q:** Looking for the measured pIC50 of CCc1nc(-c2cccc(NC(=O)c3cccc4c3NC(=O)c3ccccc3N4)c2)c(-c2ccnc(NC(C)=O)c2)[nH]1 , can you help?
**A:** 10.19 to 10.29

* * *

biological target: EGFR L858R (LR) kinase domain (Homo sapiens, UniProt P00533, L858R); construct: The EGFR kinase domain (residues 696–1022) was cloned into pTriEx; 6xHis (N, cleaved yes); GST (N, cleaved yes); made in house; host or cells: SF9 insect cells, baculovirus; test: HTRF KinEASE-TK kinase activity assay; assay type: biochemical; settings: read-out: IC50, LR
Sequence (P00533 696-1022 L858R): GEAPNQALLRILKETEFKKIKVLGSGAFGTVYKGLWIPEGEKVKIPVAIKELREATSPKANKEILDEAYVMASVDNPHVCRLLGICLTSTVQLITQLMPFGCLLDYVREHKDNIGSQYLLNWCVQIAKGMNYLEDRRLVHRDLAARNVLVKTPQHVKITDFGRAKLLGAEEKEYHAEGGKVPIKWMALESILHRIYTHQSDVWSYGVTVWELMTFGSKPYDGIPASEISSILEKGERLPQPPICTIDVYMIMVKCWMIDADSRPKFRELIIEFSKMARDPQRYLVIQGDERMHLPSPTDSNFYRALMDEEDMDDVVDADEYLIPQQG
property_measured: IC50

**Q:** What measured IC50 goes with CSc1nc(-c2cccc(CN3C(=O)c4ccccc4Nc4ccc(F)cc43)c2)c(-c2ccnc(NC(C)=O)c2)[nH]1 ?
**A:** ≥ 1000 nM

* * *

biological target: EGFR L858R/T790M/C797S (LRTMCS) kinase domain (Homo sapiens, UniProt P00533, C797S/L858R/T790M); construct: The EGFR kinase domain (residues 696–1022) was cloned into pTriEx; 6xHis (N, cleaved yes); GST (N, cleaved yes); made in house; host or cells: SF9 insect cells, baculovirus; experiment: HTRF KinEASE-TK kinase activity assay; type: biochemical; details: enzyme 0.02 nM, ATP 100 µM; read-out: Biochemical EGFR IC50, LRTMCS
property_measured: IC50 (nM)
Write the value in nM as a bare number.

**Q:** Endpoint output: IC50 of C=CC(=O)Nc1ccc(OC)c(Nc2cc(-c3[nH]c(CC)nc3-c3cccc(NC(=O)c4cccc5c4NC(=O)c4ccccc4N5)c3)ccn2)c1 . Value?
**A:** 1.8

**Q:** IC50 lookup needed for CSc1nc(-c2cccc(NC(=O)c3cccc4c3NC(=O)c3ccccc3N4)c2)c(-c2ccnc(NC(C)=O)c2)[nH]1 , thanks.
**A:** 0.064

**Q:** Sample CSc1nc(-c2ccc(F)cc2)c(-c2ccnc(NC(C)=O)c2)[nH]1 [Compound 5, reference compound] — what was its IC50?
**A:** 6000

**Q:** What measured IC50 goes with CCc1nc(-c2cccc(NC(=O)c3cccc4c3NC(=O)c3ccccc3N4)c2)c(-c2ccnc(NC(C)=O)c2)[nH]1 ?
**A:** 0.063

* * *

target: WT EGFR kinase domain (Homo sapiens, UniProt P00533); construct: The EGFR kinase domain (residues 696–1022) was cloned into pTriEx; 6xHis (N, cleaved yes); GST (N, cleaved yes); made in house; host or cells: SF9 insect cells, baculovirus; assay: HTRF KinEASE-TK kinase activity assay; format: biochemical; settings: read-out: IC50, WT
Sequence (P00533 696-1022): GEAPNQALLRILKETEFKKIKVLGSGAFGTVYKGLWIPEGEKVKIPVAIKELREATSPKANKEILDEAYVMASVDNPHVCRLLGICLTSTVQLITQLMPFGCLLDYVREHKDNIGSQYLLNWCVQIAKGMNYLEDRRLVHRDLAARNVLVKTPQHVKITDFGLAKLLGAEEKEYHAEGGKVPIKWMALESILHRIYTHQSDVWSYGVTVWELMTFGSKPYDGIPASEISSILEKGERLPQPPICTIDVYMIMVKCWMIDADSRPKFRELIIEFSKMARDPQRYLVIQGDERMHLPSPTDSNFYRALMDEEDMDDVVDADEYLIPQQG
property_measured: IC50

**Q:** Request the reported IC50 associated with CSc1nc(-c2cccc(CN3C(=O)c4ccccc4Nc4ccc(F)cc43)c2)c(-c2ccnc(NC(C)=O)c2)[nH]1 [Compound 1]
**A:** ≥ 1000 nM

* * *

So I've got a bunch of molecules here, and I need their pIC50 values.
molecular target: WT EGFR kinase domain (Homo sapiens, UniProt P00533); construct: The EGFR kinase domain (residues 696–1022) was cloned into pTriEx; 6xHis (N, cleaved yes); GST (N, cleaved yes); made in house; host or cells: SF9 insect cells, baculovirus; test: HTRF KinEASE-TK kinase activity assay; type: biochemical; conditions: enzyme 10 nM, ATP 100 µM; read-out: Biochemical EGFR IC50, WT
pIC50: −log10 of the molar value.

**Q:** pIC50 for CSc1nc(-c2cccc(NC(=O)c3cccc4c3NC(=O)c3ccccc3N4)c2)c(-c2ccnc(NC(C)=O)c2)[nH]1 ?
**A:** > 8.00

**Q:** Reported pIC50, molecule CSc1nc(-c2cccc(CN3C(=O)c4ccccc4Nc4ccc(F)cc43)c2)c(-c2ccnc(NC(C)=O)c2)[nH]1 : ____
**A:** < 5.00

**Q:** Entry CCc1nc(-c2cccc(NC(=O)c3cccc4c3NC(=O)c3ccccc3N4)c2)c(-c2ccnc(NC(C)=O)c2)[nH]1 has what pIC50?
**A:** > 8.00

**Q:** Looking for the measured pIC50 of O=C1c2cc(F)ccc2Nc2ccccc2N1Cc1ccccc1 [Compound 9, reference compound] , can you help?
**A:** < 6.00

* * *

target: EGFR L858R (LR) kinase domain (Homo sapiens, UniProt P00533, L858R); construct: The EGFR kinase domain (residues 696–1022) was cloned into pTriEx; 6xHis (N, cleaved yes); GST (N, cleaved yes); made in house; host or cells: SF9 insect cells, baculovirus; assay: HTRF KinEASE-TK kinase activity assay; format: biochemical; conditions: enzyme 0.1 nM, ATP 100 µM; read-out: Biochemical EGFR IC50, LR
property_measured: pIC50
Note on pIC50: it is the negative log10 of concentration, concentration in mol/L.

**Q:** Look up pIC50 for this compound: CSc1nc(-c2cccc(NC(=O)c3cccc4c3NC(=O)c3ccccc3N4)c2)c(-c2ccnc(NC(C)=O)c2)[nH]1 [Compound 2]
**A:** 8.82

**Q:** Record request: pIC50 value, item CSc1nc(-c2cccc(CN3C(=O)c4ccccc4Nc4ccc(F)cc43)c2)c(-c2ccnc(NC(C)=O)c2)[nH]1 [Compound 1]
**A:** 5.89

**Q:** Which pIC50 reading was recorded for the compound CCc1nc(-c2cccc(NC(=O)c3cccc4c3NC(=O)c3ccccc3N4)c2)c(-c2ccnc(NC(C)=O)c2)[nH]1 [Compound 3] ?
**A:** 8.92

* * *

target: EGFR [L858R], cytoplasmic domain (668-end) (Homo sapiens, UniProt P00533, L858R); construct: EGFR [L858R], cytoplasmic domain (668-end), GST-tagged, SignalChem; test: Time-dependent kinase inhibition assay (Sox-based substrate); details: LR, enzyme 1.0 nM, 1 mM ATP
Sequence (P00533 669-1210 L858R limits assumed): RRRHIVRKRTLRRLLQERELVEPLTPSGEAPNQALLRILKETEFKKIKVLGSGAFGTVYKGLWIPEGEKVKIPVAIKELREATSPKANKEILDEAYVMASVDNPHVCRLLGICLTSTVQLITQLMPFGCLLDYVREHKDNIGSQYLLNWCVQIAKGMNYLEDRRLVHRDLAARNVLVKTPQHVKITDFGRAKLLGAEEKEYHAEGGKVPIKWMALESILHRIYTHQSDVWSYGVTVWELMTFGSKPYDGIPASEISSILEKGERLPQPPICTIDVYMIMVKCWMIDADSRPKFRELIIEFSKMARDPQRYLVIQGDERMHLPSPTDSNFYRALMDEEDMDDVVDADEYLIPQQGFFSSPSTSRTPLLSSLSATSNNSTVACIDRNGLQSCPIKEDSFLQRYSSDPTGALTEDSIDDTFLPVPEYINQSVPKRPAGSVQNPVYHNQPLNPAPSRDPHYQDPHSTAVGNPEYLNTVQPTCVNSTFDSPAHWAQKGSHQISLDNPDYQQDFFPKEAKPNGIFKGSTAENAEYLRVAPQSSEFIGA
property_measured: Ki (µM)
# unit: µM | format: bare number

**Q:** # get_value(readout='Ki', item= C=CC(=O)Nc1ccc(OC)c(Nc2cc(-c3[nH]c(CC)nc3-c3cccc(NC(=O)c4cccc5c4NC(=O)c4ccccc4N5)c3)ccn2)c1 )
**A:** 0.61

* * *

target: EGFR WT, cytoplasmic domain (669–1210) (Homo sapiens); construct: EGFR WT, cytoplasmic domain (669–1210), GST-tagged, Carna; assay: Time-dependent kinase inhibition assay (Sox-based substrate); details: enzyme 2.0 nM, 1 mM ATP
Sequence (P00533 669-1210): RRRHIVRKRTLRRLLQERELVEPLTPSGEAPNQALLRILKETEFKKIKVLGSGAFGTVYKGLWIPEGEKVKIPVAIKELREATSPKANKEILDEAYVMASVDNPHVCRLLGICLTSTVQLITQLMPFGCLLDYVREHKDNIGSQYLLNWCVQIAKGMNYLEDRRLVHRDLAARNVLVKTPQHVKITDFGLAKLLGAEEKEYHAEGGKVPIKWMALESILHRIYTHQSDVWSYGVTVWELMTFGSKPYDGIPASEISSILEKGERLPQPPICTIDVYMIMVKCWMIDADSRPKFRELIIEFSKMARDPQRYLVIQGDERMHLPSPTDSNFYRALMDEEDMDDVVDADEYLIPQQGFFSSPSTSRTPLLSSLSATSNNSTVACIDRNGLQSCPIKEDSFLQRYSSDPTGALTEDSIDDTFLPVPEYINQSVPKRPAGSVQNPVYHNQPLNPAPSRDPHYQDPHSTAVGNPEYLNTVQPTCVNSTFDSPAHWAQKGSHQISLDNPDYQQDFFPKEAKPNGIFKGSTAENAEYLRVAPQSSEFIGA
property_measured: pKi
Units for pKi: none; it is -log10 of a concentration expressed in mol/L.

**Q:** Bench note: what pKi did C=CC(=O)Nc1ccc(OC)c(Nc2cc(-c3[nH]c(CC)nc3-c3cccc(NC(=O)c4cccc5c4NC(=O)c4ccccc4N5)c3)ccn2)c1 [Compound 4] show?
**A:** 5.92

* * *

Record form. Attribute: IC50. Fill in for each entry.
target: EGFR L858R/T790M (LRTM) kinase domain (Homo sapiens, UniProt P00533, L858R/T790M); construct: The EGFR kinase domain (residues 696–1022) was cloned into pTriEx; 6xHis (N, cleaved yes); GST (N, cleaved yes); made in house; host or cells: SF9 insect cells, baculovirus; test: HTRF KinEASE-TK kinase activity assay; type: biochemical; details: enzyme 0.02 nM, ATP 100 µM; read-out: Biochemical EGFR IC50, LRTM
Sequence (P00533 696-1022 T790M/L858R): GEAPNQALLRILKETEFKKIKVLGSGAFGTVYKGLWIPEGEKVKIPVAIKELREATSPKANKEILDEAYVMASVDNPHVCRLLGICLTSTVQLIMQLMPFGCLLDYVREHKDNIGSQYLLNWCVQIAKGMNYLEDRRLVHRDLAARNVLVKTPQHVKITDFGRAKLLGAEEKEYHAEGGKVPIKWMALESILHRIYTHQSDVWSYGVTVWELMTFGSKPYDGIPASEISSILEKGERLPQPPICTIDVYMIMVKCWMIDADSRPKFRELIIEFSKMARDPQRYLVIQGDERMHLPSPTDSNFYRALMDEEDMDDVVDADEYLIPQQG

**Q:** Which value of IC50 has been reported for CSc1nc(-c2cccc(NC(=O)c3cccc4c3NC(=O)c3ccccc3N4)c2)c(-c2ccnc(NC(C)=O)c2)[nH]1 in the records?
**A:** 0.059 nM

**Q:** What IC50 value was documented for this molecule, CCc1nc(-c2cccc(NC(=O)c3cccc4c3NC(=O)c3ccccc3N4)c2)c(-c2ccnc(NC(C)=O)c2)[nH]1 ?
**A:** 0.051 nM

**Q:** What does the data say about its IC50? Entry: O=C1c2cc(F)ccc2Nc2ccccc2N1Cc1ccccc1 [Compound 9, reference compound]
**A:** 52 nM

**Q:** Which value of IC50 has been reported for CSc1nc(-c2cccc(CN3C(=O)c4ccccc4Nc4ccc(F)cc43)c2)c(-c2ccnc(NC(C)=O)c2)[nH]1 in the records?
**A:** > 10000 nM

**Q:** GET /values?readout=IC50&item= CSc1nc(-c2ccc(F)cc2)c(-c2ccnc(NC(C)=O)c2)[nH]1 [Compound 5, reference compound]
**A:** 5800 nM

The reported numbers originate from paper PMC10879502.
